test system: winter wheat variety Dekan; assay: Foliar application field trial Laacherhof: greening effect in winter wheat; assay type: in vivo; conditions: 50 g a.i./ha, sprayed threefold at BBCH 31, 39 and 69; percentage of the color green; untreated control 21.7
readout-type: Greening Effect (%)
Numeric only. Scale: %

compound | readout-type | units-of-measure | recorded-measurement
CC(C)c1ccc(Cl)cc1CN(C(=O)c1c(C(F)F)nn(C)c1F)C1CC1 [Compound A5] | Greening Effect (%) | % | 26.7
Cc1ccc(C(C)C)c(CN(C(=O)c2c(C(F)F)nn(C)c2F)C2CC2)c1 [Compound A12] | Greening Effect (%) | % | 53.3
CC(C)c1ccc(F)cc1CN(C(=O)c1c(C(F)F)nn(C)c1F)C1CC1 [Compound A7] | Greening Effect (%) | % | 36.7

Please turn your attention to the following entry.
Any idea what Greening Effect (%) was measured for CC(C)c1cccc(F)c1CN(C(=O)c1c(C(F)F)nn(C)c1F)C1CC1 [Compound A10] ? 50.0

The measurements presented in this section are drawn from patent US20150259294A1.
